Origin of values: PubChem BioAssay (NCI)

Test system: NCI-H522 lung
Experiment: NCI tumour cell line growth inhibition, 48 h; in the data active = GI50 below about 0.43 µM; inactive = the rest
Outcome field: choose from y for active, n for inactive

Study these solved cases before continuing.
# chemical-string, assay-target, cat
measured = [
    ("CC(=O)Nc1ccc(S(=O)(=O)c2ccc(NC(C)=O)cc2)cc1", "NCI-H522 lung", "n"),
    ("Cc1nc2sc(C(=O)Nc3cccc(Cl)c3C)c(N)c2cc1C(=O)c1ccccc1", "NCI-H522 lung", "y"),
    ("Cc1cccc2c1ccc1c3occ(C)c3c(=O)oc21", "NCI-H522 lung", "n"),
]

Q: # outcome recorded in this test, key = N#C/C(=C\c1ccc([N+](=O)[O-])s1)c1nc2cc(Br)ccc2s1
A: y

Q: # outcome recorded in this test, key = CCNC(=O)c1ccc2c(c1)nc(-c1ccc(Cl)cc1)n2-c1cc(C(C)(C)C)[nH]n1
A: n
